All figures here come from PubChem BioAssay (NCI).

System: EKVX NSCLC
Test Description: NCI-60 one-dose screen, 48 h (100 = growth as untreated, 0 = no growth, -100 = all killed)
Condition Label: 10 µM unless noted
This is part of a sample that, as a whole, favours compounds with a hit. Of some 83,000 tested, about 20% had one in any assay. Activity calls are given as the source filed them. The calls were made as follows: active = growth percent below 10; inactive = the rest.
Observation Type: growth

# lookup: growth of `Clc1ccc(-c2nc3ccc(/C(=N\N=C\c4ccccc4)c4ccccc4)cc3[nH]2)cc1`
93.4% (inactive)

====

Readings of growth for the listed compounds
System: NCI-H23 lung
Test Description: NCI-60 one-dose screen, 48 h (100 = growth as untreated, 0 = no growth, -100 = all killed)
Condition Label: 10 µM unless noted
Description: Growth inhibition of the NCI-H23 human Non-Small Cell Lung tumor cell line is measured as a screen for anti-cancer activity. Cells are grown in 96 well plates and exposed to the test compound for 48 hours. Compounds are tested at a single concentration, which is 10^-5 M for most compounds. The reported endpoint is percent growth (GI% or GIPRCNT), where numbers from 0 - 100% represent growth inhibition, and numbers from -100% - 0 represent cell death. […]
The panel holds about 83,000 compounds, 20% with a hit somewhere; the sample as a whole holds those more often.
Answer in %, number only, no unit symbol.

Form field - read-out: growth; system: NCI-H23 lung; submitted item: `O=C1/C(=C/c2ccccc2[N+](=O)[O-])Oc2ccc(O)cc21`
43.7

Form field - read-out: growth; system: NCI-H23 lung; submitted item: `Cn1cc(-c2nn3c(=O)cc(-c4ccccc4)nc3s2)c2cc(F)ccc21`
59.7

Form field - read-out: growth; system: NCI-H23 lung; submitted item: `COc1ccc(Cn2cc3c(c2-c2cc(OC)c(OC)c(OC)c2)CCCc2cnoc2-3)cc1N`
47.1

Form field - read-out: growth; system: NCI-H23 lung; submitted item: CCN1C(=O)N(CC)C2SC(N/N=C/c3ccccc3)=NC21 (stereo not given)
31.1

Form field - read-out: growth; system: NCI-H23 lung; submitted item: `C#C[C@]1(O)CC[C@H]2[C@@H]3CC=C4c5sc(Nc6nc(C)cc(OC)n6)nc5CC[C@]4(C)[C@H]3CC[C@@]21C`
71.9

====

Test system: HCT-15 colon
Test Description: NCI-60 one-dose screen, 48 h (100 = growth as untreated, 0 = no growth, -100 = all killed)
Condition Label: 10 µM unless noted
Description: Growth inhibition of the HCT-15 human tumor cell line is measured as a screen for anti-cancer activity. Cells are grown in 96 well plates and exposed to the test compound for 48 hours. Compounds are tested at a single concentration, which is 10^-5 M for most compounds. The reported endpoint is percent growth (GI% or GIPRCNT), where numbers from 0 - 100% represent growth inhibition, and numbers from -100% - 0 represent cell death. For example, a value of 40 represents 60% growth inhibition. […]
This is part of a sample that, as a whole, favours compounds with a hit. Of some 83,000 tested, about 20% had one in any assay.
Observation Type: growth (%)
Answer in %, number only, no unit symbol.

Example cases with answers are listed next.
>>> observed("COc1cccc(/C=C/C(=O)c2ccc(NC(=O)COc3cccc4cccnc34)cc2)c1")
94.8
>>> observed("CNC(=O)c1c(NC(=O)c2ccc(F)cc2F)sc2c1CCC(=O)C2")
-2.45
>>> observed("O=C(NNc1nc2cc(F)ccc2n2cncc12)c1cnccn1")
27.9

# lookup: growth of `COc1ccc(Cn2cc3c(c2-c2ccccc2)CCCc2cnoc2-3)cc1[N+](=O)[O-]`
27.3

# lookup: growth of C#CCOc1ccc(C(Nc2ccc(OC)cc2)c2nnnn2C2CCCCC2)cc1 (centres undefined)
97.1

# lookup: growth of `CCN1CCN(Cc2ccc(C(=O)Nc3nc4ccc(Oc5ccnc(C(=O)NC)c5)cc4s3)cc2C(F)(F)F)CC1`
6.98
